assay: chemical genetic growth profiling, strain panel (AID 1159580);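 further: tested at 20 µM; growth read once vehicle control cultures reached saturation at 30 °C; lower values mean less growth of the strain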; conditions: S. cerevisiae deletion strains, growth OD, locus YOR083W, strain WHI5, stronger effect = lower value
In all, about 5,500 compounds went through this assay and about 2,000 (36%) were called active. Another 18% or so got no clear call; they are omitted. Some of the results follow.
# strict inequality: normalized growth < 1 yields met, everything else yields not met

Previously resolved entries follow.
CN(C)[C@@H]1C(=O)C(C(N)=O)=C(O)[C@@]2(O)C(=O)C3=C(O)c4c(O)ccc(Cl)c4[C@@H](O)[C@H]3C[C@@H]12
met
CC[N+](C)(C)c1cccc(O)c1
not met
CC(CCC(=O)O)[C@H]1CCC2C3C(=O)C[C@@H]4CC(=O)CC[C@]4(C)C3CC(=O)[C@@]21C (some centres not stated)
met
C[C@H](CCC(=O)O)[C@H]1CCC2C3C(=O)CC4CC(=O)CC[C@]4(C)C3CC(=O)[C@@]21C (some centres not stated)
met

Enquiry: Hi there! Is normalized growth for "C=C1c2c(Cl)ccc(O)c2C(O)=C2C(=O)[C@]3(O)C(O)=C(C(N)=O)C(=O)[C@@H](N(C)C)[C@@H]3[C@@H](O)[C@H]12" below 1, do you know?
Return: met
